Exercise: for every item that follows, state its recorded cell count.
- ASSAY_EXPLANATION: inhibitors of hepatocyte lipid droplet formation, primary screen, imaging, high-throughput imaging, BODIPY stain (AID 1656);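 note: cells counted across two imaged fields per well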
- PARTICULARS: AML12 mouse hepatocytes, oleate lipid droplets, at 6.5 µM; measured here: cell count, cytotoxicity flag
About 950 (0.4%) of roughly 240,000 compounds were called active. The sample holds actives, similar compounds and a random draw of the others, so the mix is not that of the screen.
Numbers only, in cells.

• Cc1cc(N2CCN(c3ccccc3)CC2)nc(N2CCOCC2)n1 = 649
• O=C(c1ccc(OC2CCN(C/C=C/c3ccc(F)cc3)CC2)cc1)N1CCCCC1 = 815
• COc1ccccc1N1CCN(S(=O)(=O)c2ccc3c(c2)NC(=O)CS3)CC1 = 687

Would you be so kind as to report cell count for each listed record?
1. COc1ccc(C(=O)Nc2ccccc2C(=O)NCc2ccco2)cc1
2. Cn1c(=O)[nH]c(=O)c2c1nc(N1CCN(C(c3ccccc3)c3ccccc3)CC1)n2CCO
3. COc1ccccc1NC(=O)CCCc1c[nH]c2ccccc12
4. O=c1[nH]cccc1-c1nc2ccccc2n1Cc1ccc(Cl)cc1
5. CC(C)(C)NC(=O)Cn1cnc2cc([N+](=O)[O-])ccc2c1=O
6. CC(NC(=O)c1ccccc1C(=O)O)c1ccc(-n2ccnc2)cc1 (configuration not stated)
7. COc1cccc(CNC(=O)Cn2c(=O)oc3cc(S(=O)(=O)N4CCCCC4)ccc32)c1

### Response
738
768
740
844
720
807
692

Would you be so kind as to report cell count for each listed record?
1. COc1ccc(N(CC(=O)Nc2cc(OC)cc(OC)c2)S(=O)(=O)c2c(C)n[nH]c2C)cc1
2. Cc1c(C(=O)NCC(c2ccco2)N2CCCC2)oc2ccc(Cl)cc12 (configuration not stated)
3. O=C(CSc1nc2nccnc2c(=O)n1Cc1cccs1)Nc1ccccc1F

### Response
[704, 736, 782]

Would you be so kind as to report cell count for each listed record?
1. CN(C(=O)c1cc2c(=O)n3ccccc3nc2s1)C1CCCCC1
2. COc1cccc(C(=O)N/N=C(\C)c2cccc(NC(=O)c3ccc(F)cc3)c2)c1OC
3. CC(C)c1ccc(NC2CCCN(C(=O)c3ccncc3)C2)cc1 (configuration not stated)
4. COc1cccc(N2CCN(c3ccc4nnc(CCC(=O)N5CCN(C)CC5)n4n3)CC2)c1
5. CN(C)c1ccc(Nc2c3c4c(cccc4n(C)c2=O)C(=O)c2ccccc2-3)cc1
6. O=C(Cn1cnc2cc([N+](=O)[O-])ccc2c1=O)NC(=O)NCc1ccccc1
7. COc1ccc(C(=O)N2CCCCC2C(=O)Nc2ccc(-n3nc(C)cc3C)cc2)o1 (configuration not stated)

### Response
654
678
631
633
681
618
694

Would you be so kind as to report cell count for each listed record?
1. CN(C)c1ccc(/C=N/Nc2cc(N3CCOCC3)nc(N3CCOCC3)n2)cc1
2. Cc1c2cnn(CC(=O)NCc3ccccn3)c(=O)c2c(C)n1Cc1ccc(Cl)cc1
3. CCCCN1C(=O)/C(=C/C=C2/C=Cc3ccccc3N2CC)SC1=S
4. Cc1ccc(Nc2cc(C)nc3c(C)ccc([N+](=O)[O-])c23)cc1
5. Cc1c(C=O)c2ccccc2n1CCOc1ccccc1
6. Cc1cc(C(=O)Cn2cnc3cc([N+](=O)[O-])ccc3c2=O)c(C)n1CC1CCCO1 (configuration not stated)
7. Cc1cccnc1CC(C)NC(=O)c1cc(COc2cncc(Cl)c2)on1 (configuration not stated)
8. CCc1ccc2nc(N(CCCN(C)C)C(=O)c3ccc4c(c3)OCCO4)sc2c1

### Response
1: 716; 2: 683; 3: 734; 4: 674; 5: 839; 6: 680; 7: 704; 8: 802

Would you be so kind as to report cell count for each listed record?
1. COc1ccc(Cl)cc1NC(=O)CN(C)C(=O)CCCc1c[nH]c2ccccc12
2. CCOC(=O)C1(Cc2ccccc2C)CCCN(C(=O)CCc2c(C)noc2C)C1 (configuration not stated)
3. CC(Nc1nc(C(F)(F)F)nc2ccccc12)c1cccs1 (configuration not stated)
4. CCSc1nsc(NC(=O)Nc2ccccc2OC)n1
5. CCC1=Nc2cc(C(=O)NCCN3CCCC3)ccc2Sc2ccc(C)cc21
6. CC(NC(=O)CNC(=O)Cc1cccc2ccccc12)c1ccc(S(N)(=O)=O)cc1 (configuration not stated)

### Response
1: 812; 2: 656; 3: 808; 4: 808; 5: 726; 6: 734

Would you be so kind as to report cell count for each listed record?
1. CCN1C(=O)/C(=C2/Sc3ccccc3N2CCCS(=O)(=O)O)SC1=S
2. CCOCCCN(C)C1CCN(C(=O)c2oc3ccccc3c2NC(=O)COc2cccc(C)c2)CC1
3. COc1ccccc1CNC(=O)C1CCN(S(=O)(=O)c2ccc3c(c2)CC(C)N3C(=O)C2CC2)CC1 (configuration not stated)
4. Cc1ccc(Nc2ccc(C(N)=O)cc2[N+](=O)[O-])cc1
5. CS(=O)(=O)N(CC(=O)N1CCOCC1)c1cccc(Cl)c1Cl

### Response
1. 691
2. 640
3. 719
4. 630
5. 792

Would you be so kind as to report cell count for each listed record?
1. CCCCN1C(=O)/C(=C2/C=CC=CN2C)SC1=S
2. CC(C)(C)NS(=O)(=O)c1ccc(NC(=O)C2CCCO2)cc1 (configuration not stated)
3. Cc1nn(C(C)C(=O)NCCC2=CCCCC2)c(=O)c2nn(-c3ccccc3)c(C)c12 (configuration not stated)

### Response
1: 765; 2: 829; 3: 685
